Data provenance is patent US20240247080A1.

Biological target: T1, GIP receptor (human (printed as hGIPR), UniProt P48546 22-466)
T1 sequence (looked up): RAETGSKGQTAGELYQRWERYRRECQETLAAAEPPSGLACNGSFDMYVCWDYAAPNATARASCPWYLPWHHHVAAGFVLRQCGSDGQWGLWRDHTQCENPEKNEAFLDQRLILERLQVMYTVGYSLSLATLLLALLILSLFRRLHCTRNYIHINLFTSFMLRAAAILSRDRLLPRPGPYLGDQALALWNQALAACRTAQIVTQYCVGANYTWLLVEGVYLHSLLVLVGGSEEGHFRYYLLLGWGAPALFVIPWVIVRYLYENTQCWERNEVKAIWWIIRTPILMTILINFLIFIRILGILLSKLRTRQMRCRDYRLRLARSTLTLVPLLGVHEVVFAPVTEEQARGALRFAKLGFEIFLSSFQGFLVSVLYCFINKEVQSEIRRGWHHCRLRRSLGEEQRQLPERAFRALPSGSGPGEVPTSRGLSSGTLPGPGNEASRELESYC
Experiment: cell-based or functional assay
Starred links: 1 amine or outer side, 2 acyl side, 3 side chain; linkers in the order of their positions; H or OH if unused. Non-standard residues stand in square brackets, D forms with d. Groups on a side chain read outwards from the residue. No end group written: not given here. *: point of attachment. C20 diacid = O=C(O)CCCCCCCCCCCCCCCCCCC(=O)*; γGlu = O=C(O)[C@H](CCC(=O)[*:2])N[*:1]; εLys = N[C@@H](CCCCN[*:1])C(=O)[*:2]; Aib = CC(C)(N)C(=O)O
measure_name: EC50 hGIPR 0.5% hP (CreLuc) (nM)
The figure you give is taken to be in nM; do not add the unit.

Need EC50 hGIPR 0.5% hP (CreLuc) of YXEGTFTSDYSIXLEKQAQXAFVEWLIKGGPSSGASLRXYYNWLTRQRY (Aib at 2, 13, 20, 39; K28 side chain carries C20DA-gGlu-gGlu-gGlu-gGlu-gGlu-gGlu-eLys; C-terminal amide) [Compound 182] , thanks.
0.21

Need EC50 hGIPR 0.5% hP (CreLuc) of Y[Aib]EGTFTSDYSI[Aib]LEKQAQ[Aib]AFVQWLIK([εLys-γGlu-γGlu-γGlu-γGlu-γGlu-C20 diacid])GGPSEYASLRHYYNWLTRQRY-NH2 (also: TFA salt) [Compound 189] , thanks.
0.31

Need EC50 hGIPR 0.5% hP (CreLuc) of Y[Aib]EGTFTSDYSI[Aib]LEKQAQ[Aib]AFVEWLIKGGPSSPASLRHYYNWLTRQRY-NH2 (not fully specified (residue 28); also: TFA salt) [Compound 178] , thanks.
0.12
